- measurement.target: c-Cbl (Homo sapiens (Human), UniProt P22681)
- Sequence (P22681 47-435): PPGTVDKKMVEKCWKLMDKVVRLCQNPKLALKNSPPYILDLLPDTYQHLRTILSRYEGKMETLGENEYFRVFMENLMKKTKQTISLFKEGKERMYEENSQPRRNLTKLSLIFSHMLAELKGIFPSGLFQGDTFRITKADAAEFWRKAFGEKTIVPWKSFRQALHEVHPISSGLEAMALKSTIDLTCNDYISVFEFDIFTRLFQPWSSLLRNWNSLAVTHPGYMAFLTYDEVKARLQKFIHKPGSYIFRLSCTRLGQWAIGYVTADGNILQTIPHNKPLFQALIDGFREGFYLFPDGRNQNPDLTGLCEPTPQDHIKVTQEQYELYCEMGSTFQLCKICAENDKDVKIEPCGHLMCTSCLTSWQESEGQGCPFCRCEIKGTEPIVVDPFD
- run.description: C-Cbl LCK Ub TR-FRET assay (c-cbl Lck HTRF)
- Assay type: biochemical
- Experimental: 6 μL of detection mixture was added to all wells and briefly centrifuged before incubating for 20 min at room temperature. […] IC50 was generated using no LCK as the low control and DMSO as the high control.
pIC50: −log10 of the molar value. Counter-ions that a name gives are not always drawn.
experimental.readout: pIC50

                                    compound  result_number
 0  COCC1(F)CN(Cc2cc3c(c(C(F)(F)F)c2)CN(c2cccc(C4([C@H](F)c5nncn5C)COC4)c2)C3=O)C1           6.25
 1  CC(=O)N1CCN(Cc2cc3c(c(C(F)(F)F)c2)CN(c2cccc(C4([C@@H](F)c5nncn5C)COC4)c2)C3=O)[C@@H](C(C)C)C1           6.72
 2  Cn1cnnc1[C@@H](F)C1(c2cccc(N3Cc4c(cc(CN)cc4C(F)(F)F)C3=O)c2)CC(F)(F)C1.O=CO [Compound 394, formate]           6.80
 3  CC[C@H]1CC[C@H](c2cc3c(c(C(F)(F)F)c2)CN(c2cccc(C4(Cc5nncn5C)CC(F)(F)C4)c2)C3=O)N1           7.28
 4  Cn1cnnc1[C@@H](F)C1(c2cccc(N3Cc4c(cc(CN5CC(C)(CF)C5)cc4C(F)(F)F)C3=O)c2)COC1           6.43
 5  Cn1cnnc1[C@@H](F)C1(c2cccc(N3Cc4c(cc(CN5CC6(CC6)C5)cc4C(F)(F)F)C3=O)c2)COC1           6.57
 6  CC(C)[C@H]1CN(C)CCN1Cc1cc2c(c(C(F)(F)F)c1)CN(c1cccc(C3([C@@H](F)c4nncn4C(F)F)COC3)c1)C2=O           7.77
 7  Cn1cnnc1[C@@H](F)C1(c2cccc(N3Cc4c(cc(CN5CCC[C@@H]5CO)cc4C(F)(F)F)C3=O)c2)COC1           6.14
 8  Cn1cnnc1[C@H](F)C1(c2cccc(N3Cc4c(cc(CN)cc4C(F)(F)F)C3=O)c2)COC1           6.96
 9  CN(C)CCNc1cc(C2(Cc3nncn3C)CCC2)cc(N2Cc3c(cc(CNC4(C)CCC4)cc3C(F)(F)F)C2=O)n1           5.96
10  Cn1cnnc1CC1(c2cccc(N3Cc4c(cc(C5CNC5)cc4C(F)(F)F)C3=O)c2)COC1           6.68
11  CC(C)[C@H]1CN(C)CCN1Cc1cc2c(c(C(F)(F)F)c1)CN(c1cccc(C3([C@H](F)c4nncn4C4CC4)COC3)c1)C2=O           5.57
12  Cn1cnnc1[C@H](F)C1(c2cccc(N3Cc4c(cc(CN5CC[C@@H](F)C5)cc4C(F)(F)F)C3=O)c2)COC1           6.54
13  Cn1cnnc1[C@H](F)C1(c2cccc(N3Cc4c(cc(CN)cc4C(F)(F)F)C3=O)c2)CCC1           7.51
14  Cn1cnc(CNc2cc(C3(Cc4nncn4C)CCC3)cc(N3Cc4c(cc(CNC5(C)CCC5)cc4C(F)(F)F)C3=O)n2)c1           7.29
15  CC(C)[C@H]1CN(C)CCN1Cc1cc2c(c(C(F)(F)F)c1)CN(c1cccc(C3(C(F)(F)c4nncn4C)CC3)c1)C2=O           7.82
16  Cn1cnnc1[C@@H](F)C1(c2cccc(N3Cc4c(cc(CN5CC(CCO)C5)cc4C(F)(F)F)C3=O)c2)COC1           6.46
17  Cn1cnnc1CC1(c2cccc(N3Cc4c(cc(CNCC5CC5)cc4C(F)(F)F)C3=O)c2)CC(F)(F)C1           8.09
18  Cn1cnnc1CC1(c2cccc(N3Cc4c(cc(CNC(C)(C)C)cc4C(F)(F)F)C3=O)c2)CC(F)(F)C1           7.24
19  C[C@H]1CN(Cc2cc3c(c(C(F)(F)F)c2)CN(c2cccc(C4(Cc5nncn5C)CC(F)(F)C4)c2)C3=O)CCN1           7.66
20  CCOc1cc(C2(Cc3nncn3C)COC2)cc(N2Cc3c(cc(CN4CCC(F)(F)[C@H](C)C4)cc3C(F)(F)F)C2=O)n1           7.85
21  CC(C)[C@H]1CN(S(C)(=O)=O)CCN1Cc1cc2c(c(C(F)(F)F)c1)CN(c1cccc(C3([C@H](F)c4nncn4C)COC3)c1)C2=O           6.18
22  Cn1cnnc1[C@H](F)C1(c2cccc(N3Cc4c(cc(CNC5(C)CCC5)cc4C(F)(F)F)C3=O)c2)COC1 [Compound 494]           7.92
23  CC[C@H]1CN(Cc2cc3c(c(C(F)(F)F)c2)CN(c2cccc(C4(Cc5nncn5C)CC(F)(F)C4)c2)C3=O)CCN1C           7.96
24  Cn1cnnc1[C@H](F)C1(c2cccc(N3Cc4c(cc(CN5CC6(CCC6)C5)cc4C(F)(F)F)C3=O)c2)COC1           7.14
25  CN1CC(Cc2cc3c(c(C(F)(F)F)c2)CN(c2cccc(C4(Cc5nncn5C)CC(F)(F)C4)c2)C3=O)C1 [Compound 442, formate]           7.19
